Reference source for all entries: patent US20140135270A1

# Test System: N-His-Tb-BIR3(241-356, XIAP) (Homo sapiens, UniProt P98170)
# Construct: additions of N-His-Tb-BIR3(241-356, XIAP), fluoresceinated modified SMAC peptide; Tb (meaning not explained; sits between His tag and BIR3) (N)
# Sequence (P98170 241-356): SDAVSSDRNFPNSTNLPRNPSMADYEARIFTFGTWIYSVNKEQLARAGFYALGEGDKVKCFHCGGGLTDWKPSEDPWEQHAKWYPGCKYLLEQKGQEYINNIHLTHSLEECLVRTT
# Assay Explanation: XIAP-BIR3 SMAC Peptide Fluorescence Polarization Assay (FPA)
# Assay type: binding
Observation Type: pIC50
Would you please state pIC50, meaning minus log10 of the concentration in mol/L, as a bare number?

1. CN[C@@H](C)C(=O)N[C@H](C(=O)N1C[C@@H]2C[C@H]1C(=O)N[C@@H](Cc1ccc3ccccc3c1)C(=O)N[C@H](C(=O)O)C/C=C/CO[C@H]1C[C@@H](C(=O)N[C@@H](Cc3ccc4ccccc4c3)C(=O)N[C@H](C(=O)O)CC(=O)N2)N(C(=O)[C@@H](NC(=O)[C@H](C)NC)C(C)(C)C)C1)C(C)(C)C 7.13
2. CN[C@@H](C)C(=O)N[C@H](C(=O)N1C[C@@H]2C[C@H]1C(=O)N[C@@H](Cc1ccc3ccccc3c1)C(=O)N[C@H](C(=O)O)COC/C=C/CO[C@H]1C[C@@H](C(=O)N[C@@H](Cc3ccc4ccccc4c3)C(=O)N[C@H](C(=O)O)CCCC(=O)N2)N(C(=O)[C@@H](NC(=O)[C@H](C)NC)C(C)(C)C)C1)C(C)(C)C 7.48
3. CN[C@@H](C)C(=O)N[C@H](C(=O)N1C[C@@H]2C[C@H]1C(=O)N[C@@H](Cc1ccc3ccccc3c1)C(=O)N[C@H](C(=O)O)C/C=C/CO[C@H]1C[C@@H](C(=O)N[C@@H](Cc3ccc4ccccc4c3)C(=O)N[C@H](C(=O)O)CCC(=O)N2)N(C(=O)[C@@H](NC(=O)[C@H](C)NC)C(C)(C)C)C1)C(C)(C)C 7.32
4. CN[C@@H](C)C(=O)N[C@H](C(=O)N1C[C@@H]2C[C@H]1C(=O)N[C@@H](Cc1ccc3ccccc3c1)C(=O)N[C@H](C(=O)O)C/C=C/CO[C@H]1C[C@@H](C(=O)N[C@@H](Cc3ccc4ccccc4c3)C(=O)N[C@H](C(=O)O)CCCC(=O)N2)N(C(=O)[C@@H](NC(=O)[C@H](C)NC)C(C)(C)C)C1)C(C)(C)C 7.38
5. CN[C@@H](C)C(=O)N[C@H](C(=O)N1C[C@@H]2C[C@H]1C(=O)N[C@@H](Cc1ccc3ccccc3c1)C(=O)N[C@H](C(=O)O)C/C=C/CO[C@H]1C[C@@H](C(=O)N[C@@H](Cc3ccc4ccccc4c3)C(=O)N[C@H](C(=O)O)Cc3ccc(cc3)C(=O)N2)N(C(=O)[C@@H](NC(=O)[C@H](C)NC)C(C)(C)C)C1)C(C)(C)C 7.58

Moving on to the next compound.
Task item: Return pIC50 (reported value) for this compound: "CN[C@@H](C)C(=O)N[C@H](C(=O)N1C[C@@H]2C[C@H]1C(=O)N[C@@H](Cc1ccc3ccccc3c1)C(=O)N[C@H](C(=O)O)COC/C=C/CO[C@H]1C[C@@H](C(=O)N[C@@H](Cc3ccc4ccccc4c3)C(=O)N[C@H](C(=O)O)CCC(=O)N2)N(C(=O)[C@@H](NC(=O)[C@H](C)NC)C(C)(C)C)C1)C(C)(C)C"
Reply: 7.40
